# TGT: Deoxycytidine kinase (Rattus norvegicus) (UniProt P48769)
# Sequence (P48769 whole entry): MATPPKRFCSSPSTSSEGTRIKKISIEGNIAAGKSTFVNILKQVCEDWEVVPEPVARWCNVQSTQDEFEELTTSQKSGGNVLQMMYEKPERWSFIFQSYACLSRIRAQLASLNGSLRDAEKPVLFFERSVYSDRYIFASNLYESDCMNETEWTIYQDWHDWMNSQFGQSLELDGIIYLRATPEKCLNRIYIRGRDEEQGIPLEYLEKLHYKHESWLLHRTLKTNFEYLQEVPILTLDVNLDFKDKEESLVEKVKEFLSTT
# ASSAY_TEXT: Irreversible inhibition of Walker 256 rat tumor deoxycytidine kinase by [3H]deoxycytidine binding assay
Activity calls are given as the source filed them. No cut-off for these calls is given here.
QUANTITY_KIND: inhibition

* O=c1nc(NCc2ccccc2)cc[nH]1 | inactive
* CCCCCNc1cc[nH]c(=O)n1 | inactive
* CS(=O)(=O)c1nc(N)cc(OCc2ccccc2)n1 | inactive
* COc1ccc(-c2c[nH]c(=O)nc2N)cc1 | inactive
* Nc1cc(OCc2ccccc2)[nH]c(=O)n1 | inactive
* CSc1nc(N)cc(OCc2ccccc2)n1 | inactive
* CCCCNc1cc(N)nc(=O)[nH]1 | inactive
